All values here come from patent US7550589B2.

Entries below carry reported IC50 on Src (p60^c-src) (Homo sapiens).
Sequence (P12931 whole entry): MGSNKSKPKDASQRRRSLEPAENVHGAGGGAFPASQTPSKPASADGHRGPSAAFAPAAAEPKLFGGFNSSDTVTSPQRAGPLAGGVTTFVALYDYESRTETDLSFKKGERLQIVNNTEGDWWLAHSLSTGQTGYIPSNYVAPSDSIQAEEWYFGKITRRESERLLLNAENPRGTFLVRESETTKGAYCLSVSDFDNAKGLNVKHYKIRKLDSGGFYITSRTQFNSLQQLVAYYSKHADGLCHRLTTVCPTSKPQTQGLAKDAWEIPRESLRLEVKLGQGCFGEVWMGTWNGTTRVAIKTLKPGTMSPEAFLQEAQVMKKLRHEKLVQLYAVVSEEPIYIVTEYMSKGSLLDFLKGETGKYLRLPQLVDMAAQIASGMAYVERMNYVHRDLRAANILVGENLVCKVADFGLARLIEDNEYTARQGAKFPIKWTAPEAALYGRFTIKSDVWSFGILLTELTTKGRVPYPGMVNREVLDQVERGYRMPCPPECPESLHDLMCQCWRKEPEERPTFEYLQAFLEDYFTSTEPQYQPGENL
Readout label: IC50

CNCCNC(=O)c1nc2nc(Nc3cccc(NC(C)=O)c3)ncc2cc1-c1ccccc1C : 0.5 to 5 nM
Cc1ccccc1-c1cc2cnc(Nc3ccc(N4CCOCC4)cc3)nc2nc1C(=O)NC[C@H]1CCCN1 : 0.5 to 5 nM
CC(=O)Nc1cccc(Nc2ncc3cc(-c4ccccc4C(F)(F)F)c(C(=O)NC[C@H]4CCCN4)nc3n2)c1 : 0.5 to 5 nM
O=C(NC[C@H]1CCCN1)c1nc2nc(Nc3ccc4c(c3)S(=O)(=O)CCO4)ncc2cc1-c1ccccc1C(F)(F)F : 5 to 50 nM
